system: Balb/c 3T3 cells; experiment: MTT cell survival assay, Balb/c 3T3 cells (normal reference); format: cell-based, murine; conditions: Mus musculus, BALB/c3T3, 72 h
Metric Name: pIC50
By convention, pIC50 is the negative base-10 log of a molar concentration.

Example compounds with recorded pIC50:
Cl.O=[N+]([O-])c1ccc2nc(N3CCN(Cc4ccc(F)cc4)CC3)ccc2c1 [AB5A]: 4.41
CCCCCCCCCN1CCN(c2ccc3cc([N+](=O)[O-])ccc3n2)CC1 [AZ05]: 4.61
Cl.O=[N+]([O-])c1ccc2nc(N3CCN(CC4CCC4)CC3)ccc2c1 [AB22]: 4.45

-- ask Query pIC50 on Balb/c 3T3 cells for CCCCCCCCCCCN1CCN(c2ccc3cc([N+](=O)[O-])ccc3n2)CC1.Cl [AZ07]
-- reply 4.94

-- ask Query pIC50 on Balb/c 3T3 cells for Cl.O=[N+]([O-])c1ccc2nc(N3CCN(CC4CCCCC4)CC3)ccc2c1 [AB21]
-- reply 4.69

----------
test system: SH-SY5Y cells; assay: MTT cell survival assay, SH-SY5Y cells; type: cell-based, human; conditions: Homo sapiens; SH-SY5Y cells, MTT, 72 h
Attribute: log10(IC50)
All values: log10 IC50 [µM].

COc1ccc2cccc(N3CCN(CCNC(=O)c4ccc(F)cc4)CC3)c2c1.Cl [Compound S14506, reference compound]: 0.63

-- ask Which log10(IC50) is listed for Cl.O=[N+]([O-])c1ccc2nc(N3CCN(CC4CCCCC4)CC3)ccc2c1 [AB21] ?
-- reply 1.33

-- ask Which log10(IC50) is listed for CCCCCCCCCN1CCN(c2ccc3cc([N+](=O)[O-])ccc3n2)CC1 [AZ05] ?
-- reply 1.24

-- ask Which log10(IC50) is listed for COCCCC/C(=N\OCCN)c1ccc(C(F)(F)F)cc1 [Fluvoxamine, fluvoxamine, reference compound] ?
-- reply 1.95

-- ask Which log10(IC50) is listed for COc1ccccc1N1CCN(CCN(C(=O)C2CCCCC2)c2ccccn2)CC1 [WAY100635, reference compound] ?
-- reply 1.87

-- ask Which log10(IC50) is listed for COCCCC/C(=N\OCCNC(C)=O)c1ccc(C(F)(F)F)cc1 [N-Ac-Fluvoxamine, reference compound] ?
-- reply 2.05

-- ask Which log10(IC50) is listed for CCCCCCCCN1CCN(c2ccc3cc([N+](=O)[O-])ccc3n2)CC1.Cl [KW117] ?
-- reply 1.40

-- ask Which log10(IC50) is listed for CC(=O)N1CCC(c2ccc(F)cc2)C(COc2ccc3c(c2)OCO3)C1 (stereo not drawn) [N-Ac-Paroxetine, reference compound] ?
-- reply 1.82

-- ask Which log10(IC50) is listed for Cl.O=[N+]([O-])c1ccc2nc(N3CCN(Cc4ccc(F)cc4)CC3)ccc2c1 [AB5A] ?
-- reply 1.26

-- ask Which log10(IC50) is listed for CCCCCCCCCCCN1CCN(c2ccc3cc([N+](=O)[O-])ccc3n2)CC1.Cl [AZ07] ?
-- reply 0.96

-- ask Which log10(IC50) is listed for Cl.O=[N+]([O-])c1ccc2nc(N3CCN(CC4CCC4)CC3)ccc2c1 [AB22] ?
-- reply 1.54

-- ask Which log10(IC50) is listed for Fc1ccc([C@@H]2CCNC[C@H]2COc2ccc3c(c2)OCO3)cc1 [Paroxetine, paroxetine, reference compound] ?
-- reply 1.26
